# Test system: biotinyl-Ile-oxazolone
# EXPERIMENTAL PROTOCOL: self-aminoacylation, catalytic enhancement (BIO) (fold over background); higher = more active; k-Seq, kA / k0A0; sequences stand for … in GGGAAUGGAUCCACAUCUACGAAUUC…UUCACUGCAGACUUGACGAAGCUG
Fewer inactive variants are shown than the library holds.
Kindly return rule met if reported self-aminoacylation is no lower than 1; return rule not met if it is lower.

{"SEQUENCE": "CCACAAUUCAAGCAAUCGGUC [Fam1B.1 aminoacylation ribozyme variant]", "GROUP": "rule met"}
{"SEQUENCE": "CCACGCUUCAGGCAAUCGGUC [Fam1B.1 aminoacylation ribozyme variant]", "GROUP": "rule met"}
{"SEQUENCE": "UUUCACCUAGGACAUCGGGUG [Fam2.2 aminoacylation ribozyme variant]", "GROUP": "rule met"}
{"SEQUENCE": "AAGUUUGUUAAUAGGCGCAAG [Fam3.1 aminoacylation ribozyme variant]", "GROUP": "rule not met"}
{"SEQUENCE": "AUUCACCUAGGUCAACAGGUG [Fam2.2 aminoacylation ribozyme variant]", "GROUP": "rule met"}
{"SEQUENCE": "AUUCACCCAGGUCAUCGCGUG [Fam2.2 aminoacylation ribozyme variant]", "GROUP": "rule met"}
{"SEQUENCE": "CUAGUUUAAACAAUCGGUCUG [Fam1A.1 aminoacylation ribozyme variant]", "GROUP": "rule not met"}
{"SEQUENCE": "AUUACCCUGGUCAUGGAGUGU [Fam2.1 aminoacylation ribozyme variant]", "GROUP": "rule met"}
